Entries and their measured cytotoxicity at 70.5 h follow.
test: Human HepG2 cell viability assay in 384 well format; format: toxicity, cell-based; set-up: dose 125 nL, time 70.5 hour; concentration not given beside the values; settings: HepG2 cells, read-out: Inhibition
Number only, in %; omit the unit.

Past entries and their recorded results:
CC(C)(C)C(O)CN1CCN(Cc2cccc(C#N)c2)CC1 (stereo unspecified)    14.7
CCc1noc(CN(C)C(=O)c2ccccc2-c2ncn[nH]2)n1    -2.67

Task: // query cytotoxicity at 70.5 h value for entry `COCCCNC(=O)N1CCN(C(=O)c2nsc3ccccc23)CC1`
Result: -18.1

Task: Another compound: `CCc1ccc(CN2CCc3[nH]nc(C(=O)N4CCNC(=O)C4)c3C2)o1`
Result: -11.8

Task: Another compound: `O=C(c1cc(C2CCCC2)no1)N1CCCCC1`
Result: -15.8

Task: Another compound: `CC(C)OCCSCCn1nc2ccccn2c1=O`
Result: -12.9

* * *

assay: Human HepG2 cell viability assay in 384 well format; type: toxicity, cell-based; design: dose 125 nL, time 70.5 hour; concentration not given beside the values; settings: HepG2 cells, read-out: Inhibition
experimentalReadout: cytotoxicity at 70.5 h (%)
Number only, in %; omit the unit.

Past entries and their recorded results:
Cc1cnn(C2CCCN(C(=O)CCCn3ccnc3C)C2)c1 (stereo unspecified)    19.3
CCc1cnc(CNC(=O)NC2CC(C)(C)OC2(C)C)s1 (stereo unspecified)    12.1
Cc1cccc(S(=O)(=O)N2C[C@H]3C[C@H](C(=O)NCC4CC4)[C@@H](C2)O3)c1    -0.444

Task: // query cytotoxicity at 70.5 h value for entry `COc1ccc(CN2CCNC(=O)CC2)cc1SC(F)(F)F`
Result: 1.64

Task: Another molecule: CC(C)S(=O)(=O)CC(=O)N1CCCC(n2ccnc2)C1 (stereo unspecified)
Result: -0.47

Task: Another molecule: COCCC(=O)N1CCC2(COCc3cnc(-c4cccnc4)nc32)C1 (stereo unspecified)
Result: -6.92

* * *

Entries and their measured cytotoxicity at 70.5 h follow.
test: Human HepG2 cell viability assay in 384 well format; format: toxicity, cell-based; parameters: dose 125 nL, time 70.5 hour; concentration not given beside the values; conditions: HepG2 cells, read-out: Inhibition
Number only, in %; omit the unit.

O=C1NCCN(C(=O)CCN2CCCO2)C1c1cccc(F)c1 (configuration not stated)    4.41
COc1cc(N2C[C@@H]3CC[C@H](C2)N(CC2CCC2)C3=O)ncn1    -3.49
c1ccn(Cc2noc3c2CN(Cc2ccsc2)CC3)c1    -6.24

Task: // query cytotoxicity at 70.5 h value for entry CCS(=O)(=O)N1CCOC(CCCc2ccccc2)C1 (configuration not stated)
Result: 5.87

Task: Another compound: `O=C(c1cnccn1)N1C[C@@H](c2ccccc2)[C@@]2(CCNC2=O)C1`
Result: -4.45

Task: Another compound: `CCN(CC)C(=O)CSc1nc2nc(C)ccc2o1`
Result: 11.9

Task: Another compound: `CC(=O)Nc1ccc(CNCc2cccnc2N(C)C)cc1`
Result: 1.4

* * *

Entries and their measured cytotoxicity at 70.5 h follow.
assay: Human HepG2 cell viability assay in 384 well format; type: toxicity, cell-based; design: dose 125 nL, time 70.5 hour; concentration not given beside the values; settings: HepG2 cells, read-out: Inhibition
Number only, in %; omit the unit.

COc1ncccc1CNC(=O)c1ccco1    18

Please look at the following molecule next.
Task: // query cytotoxicity at 70.5 h value for entry `CCc1c(C)[nH]c(C2(N)CCCCC2)nc1=O`
Result: 0.763
